molecular target: T1, huIL1RAP ECD recombinant protein (human, UniProt Q9NPH3 21-367); test: Octet BLI, antibody on Protein A biosensor, recombinant huIL1RAP ECD
T1 construct: also called recombinant human IL1RAP-ECD; recombinant human IL1RAP; not shown: C-terminal histidine tag for purification
// values below are reported Kd

Binder: 42D10_28A5 (antibody, V domains shown, Recombinant human antibody) VH: QVQPKESGPGVVKPSETLSLTCAVSGFPISRGYYWGWIRQPPGKGLEWIGNIFHSGTTYYNPSLKSRVTISVDTSKNQISLKLTSVTAADTAVYYCVGFGDLPHYQYYVMDIWGQGTTVTVSS VL: EIVLTQSPATLSLSPGERATLSCRASQSVSSYLAWYQQKPGQAPRLLIYDASNRATGIPARFSGSGSGTDFTLTISSLEPEDFAVYYCQQRSNWPPYTFGQGTKLEIK
Kd / nM: 7
//
Binder: 32D4_21D6 (antibody, V domains shown, Recombinant human antibody) VH: QLQLVESGGGVVQPGRSLRLSCAASGFTFSSYGMHWVRQAPGKGLEWVAVIWYDGSSEYYADSVKGRFTISRDNSKNTLYLQMNSLRAEDTAVYYCARENVYGSGWFFDYWGQGTLVTVSS VL: EIVMTQSPATLSVSPGERASLSCRASQSVGSNLAWYQQKPGQAPRLLIFGASTRATGIPARFSGSRSGTEFTLTISSLQSEDFALYYCQQYNNWPPWTFGQGTKVEIK
Kd / nM: 3
//
Binder: 10C8-15A4 (antibody, V domains shown, Recombinant human antibody) VH: EEQLLESGADLAQPGGSLRLSCAASGFTFSSYAMSWVRQAPGKGLEWVSTIRISGDTTYYADSVKGRFTISRDNSKNTLFLQMNSLRAEDTAVYYCVRDYYNGMDVWGHGTTVTVSS VL: EIVLTQSPATLSLSPGERATLSCRASQRVSSYLAWYQQKPGQAPRLLIYDASNRATGIPARFSGSGSGTDFTLTISSLEPEDFAVYYCQQRSYWPPAFGQGTKLEIK
Kd / nM: 1
